systemName: RCAR1-ABI2 (Arabidopsis thaliana, UniProt O04719+Q84MC7)
Construct: 6xHis (N)
Sequence (Q84MC7 whole entry): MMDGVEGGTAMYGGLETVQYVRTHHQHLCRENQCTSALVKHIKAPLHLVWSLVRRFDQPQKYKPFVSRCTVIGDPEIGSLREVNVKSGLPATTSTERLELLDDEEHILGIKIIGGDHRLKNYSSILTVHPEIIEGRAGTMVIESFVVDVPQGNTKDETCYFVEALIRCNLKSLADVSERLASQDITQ
Sequence (O04719 whole entry): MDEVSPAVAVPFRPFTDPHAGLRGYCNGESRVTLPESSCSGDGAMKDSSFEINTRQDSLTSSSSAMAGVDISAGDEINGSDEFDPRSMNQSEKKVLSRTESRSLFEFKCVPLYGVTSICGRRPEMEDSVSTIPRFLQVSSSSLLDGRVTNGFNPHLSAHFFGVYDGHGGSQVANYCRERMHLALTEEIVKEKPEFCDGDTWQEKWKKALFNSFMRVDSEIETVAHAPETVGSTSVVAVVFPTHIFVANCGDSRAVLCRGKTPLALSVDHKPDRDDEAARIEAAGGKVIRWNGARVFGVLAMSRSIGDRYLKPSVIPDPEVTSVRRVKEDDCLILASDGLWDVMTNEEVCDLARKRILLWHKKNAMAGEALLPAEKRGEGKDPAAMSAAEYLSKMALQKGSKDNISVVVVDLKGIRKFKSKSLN
protocolDetails: In vitro phosphatase assay, ABI2 with RCAR1
propertyMeasured: IC50

[[record]]
compound = "CC1=CC(=O)CC(C)(C)[C@@]1(O)/C=C/C(C)=C\\C(=O)O [ABA, abscisic acid]"
assayresult = "100 nM"


* * *

protocolDetails: LC-MS log p
Assay type: physicochemical
propertyMeasured: chromatographic logP

[[record]]
molecule = "CCOC(=O)/C=C(\\C#CC(O)(C(C)C)C1(C#N)CC1)CC (stereo not shown) [CCP8]"
assayresult = 1.39

